biological target: sigma receptors; assay: Inhibition of 3H-DTG binding to sigma receptors in rat brain in vitro; conditions: 2 nM 3H-DTG, rat brain without cerebellum, 25° C., 20 min
reported property: IC50 (nM)
Numbers only, in nM.

| molecule | unit symbol | IC50 |
| --- | --- | --- |
| c1ccc2c(c1)COC1(CCN(CCCCc3noc4ccccc34)CC1)C2 [Compound 19c] | nM | 0.84 |
| Clc1cc2[nH]cc(CCCCN3CCC4(CC3)OCc3ccccc34)c2cc1Cl [Compound 2z] | nM | 1.5 |

Here is the next item to consider.
Q. Can you share its IC50? I mean this molecule: c1ccc(CCCCN2CCC3(CC2)COCc2ccccc23)cc1 [Compound 2f]
A. 0.95
